Provide the reported EC50 of each item.
Target: T1, human VTCN1 expressed on cells (293-VTCN1 cells; SKBR3, MX-1 and ZR-75-1 cells that express it naturally) (human, UniProt Q7Z7D3 25-282)
T1 construct: The cDNA was bought from Origene
T1 sequence: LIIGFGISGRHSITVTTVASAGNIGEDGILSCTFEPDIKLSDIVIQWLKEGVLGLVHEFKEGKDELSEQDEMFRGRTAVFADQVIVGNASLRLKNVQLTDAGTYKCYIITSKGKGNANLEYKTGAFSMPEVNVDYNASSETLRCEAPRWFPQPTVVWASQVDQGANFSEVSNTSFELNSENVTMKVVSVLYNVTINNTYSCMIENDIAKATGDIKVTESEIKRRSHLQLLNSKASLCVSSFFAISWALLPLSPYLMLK
Assay: flow cytometry, antibody titration on 293-huVTCN1 cells
Only the number, expressed in nM, is required.

Record 4C7_63A1 (antibody, V domains shown, Fully human antibody) VH: QVQLQESGPGLVKPSGTLSLTCAVSGGSISSSNWWSWVRQPPGKGLEAIGEIYHSGNTNYNPSLKSRVTISVDKSKNQFSLKLSSVTAADTAIYYCARDGYSSGWYWGYFDYWGQGTLVTVSS VL: EIVMTQSPATLSVSPGERATLSCRASQSVNSNLAWYQQKPGQAPWLLIYGASTRATGIPARFSGSGSGTEFTLTISSLQSEDFAVYYCQQYNHWPYTFGQGTKLEIK . Reported EC50: 2.1

Record 14D6_60B5 (antibody, V domains shown, Fully human antibody) VH: QVQLVHSGAEVKRPGSSVKVSCKASGGTFSSYAISWVRQAPGQGLEWMGGIIPIFGIANYAQKFQGRVTIIADKSTRTAYMELSSLRSEDTAVYYCARGGPYFDYWGQGILVTVSS VL: EIVMTQSPATLSVSPGERATLSCRASQSVSSNLAWYQQKPGQAPRLLIYGASTRATGIPARFSGSGSGTEFTLTISSLQSEDFAVYYCQQYNKWPFTFGPGTKVDIK . Reported EC50: 4.6

Record 7G7_44C6 (antibody, V domains shown, Fully human antibody) VH: QVQLQESGPGLVKPSETLSLTCTVSGGSISHYYWSWIRQPPGKGLEWIGYIYYSGPTNYNPSLKSRVTISVDTSKNQFSLKLSSVTAADTAVYYCARTYYYGSGSFPDAFDIWGQGTMVTVSS VL: KIVLTQSPATLSLSPGERATLSCRASQSVSSYLAWYQQTPGQAPRLLIYDASNRATGIPARFSVSGSGTDFTLTISSLEPEDFAVYYCQQRSSWPLTFGGGTKLEIK . Reported EC50: 2.2
